Where do these numbers come from? They come from ChEMBL document CHEMBL1144356.

Molecular target: Peroxisome proliferator-activated receptor alpha (Canis lupus familiaris)
Test: Effective concentration against canine PPAR-alpha in Gal4 transactivation assay
Catalogue of pEC50 values
Scale for pEC50: -log10 of concentration given in mol/L; no unit attached.

Field: example entries. Status: answers known.
CCC1(C(=O)O)Cc2cc(OCCCOc3ccc(OCC(F)(F)F)cc3Cl)ccc2O1 (racemic) :: 8.10
CC[C@@]1(C(=O)O)Cc2cc(OCCCOc3ccc(CCC(F)(F)F)cc3Cl)ccc2O1 :: 8.70
CC(C)[C@@]1(C(=O)O)Cc2cc(OCCCOc3cc(C(F)(F)F)ccc3Cl)ccc2O1 :: 7.38
CC1(C(=O)O)Cc2cc(OCCCOc3ccc(OCC(F)(F)F)cc3Cl)ccc2O1 (racemic) :: 7.38
CC(C)(C)C1(C(=O)O)Cc2cc(OCCCOc3ccc(CC(F)(F)F)cc3Cl)ccc2O1 (racemic) :: 8.70
CCC1(C(=O)O)Cc2cc(OCCCOc3ccc(CC(C)(C)C)cc3Cl)ccc2O1 (racemic) :: 8.70

What value of measured pEC50 is listed for "CC(C)[C@@]1(C(=O)O)Cc2cc(OCCOc3ccc(OC(F)(F)F)cc3Cl)ccc2O1" ?
8.00

Can you handle "CC[C@@]1(C(=O)O)Cc2cc(OCCCOc3ccc(OC(F)(F)F)cc3Cl)ccc2O1" next?
8.70

Can you handle CCC1(C(=O)O)Cc2cc(OCCCOc3ccc(C(C)(C)C)cc3Cl)ccc2O1 (racemic) next?
7.70

Can you handle "CC[C@@]1(C(=O)O)Cc2cc(OCCCOc3ccc(OCC(F)(F)F)cc3)ccc2O1" next?
6.89

Can you handle O=C(O)C1(C(F)(F)F)Cc2cc(OCCCOc3ccc(CC(F)(F)F)cc3Cl)ccc2O1 (racemic) next?
7.59

Can you handle O=C(O)C1Cc2cc(OCCCOc3ccc(OCC(F)(F)F)cc3Cl)ccc2O1 (racemic) next?
5.87

---

Biological target: Peroxisome proliferator-activated receptor alpha (Homo sapiens, UniProt Q07869)
Experiment: Effective concentration against human PPAR-alpha in Gal4 transactivation assay
property_measured: pEC50
Scale for pEC50: -log10 of concentration given in mol/L; no unit attached.

CC(C)[C@@]1(C(=O)O)Cc2cc(OCCOc3ccc(OC(F)(F)F)cc3Cl)ccc2O1 :: 7.24
CCC1(C(=O)O)Cc2cc(OCCCOc3ccc(C(C)(C)C)cc3Cl)ccc2O1 (racemic) :: 8.05
CCC1(C(=O)O)Cc2cc(OCCCOc3ccc(OCC(F)(F)F)cc3Cl)ccc2O1 (racemic) :: 7.47

What value of measured pEC50 is listed for O=C(O)C1(C(F)(F)F)Cc2cc(OCCCOc3ccc(CC(F)(F)F)cc3Cl)ccc2O1 (racemic) ?
7.43

Can you handle CCCc1cc(SC(F)(F)F)ccc1OCCCOc1ccc2c(c1)CC(CC)(C(=O)O)O2 (racemic) next?
8.10

---

Molecular target: Peroxisome proliferator-activated receptor gamma (Homo sapiens, UniProt P37231)
Sequence (P37231 whole entry): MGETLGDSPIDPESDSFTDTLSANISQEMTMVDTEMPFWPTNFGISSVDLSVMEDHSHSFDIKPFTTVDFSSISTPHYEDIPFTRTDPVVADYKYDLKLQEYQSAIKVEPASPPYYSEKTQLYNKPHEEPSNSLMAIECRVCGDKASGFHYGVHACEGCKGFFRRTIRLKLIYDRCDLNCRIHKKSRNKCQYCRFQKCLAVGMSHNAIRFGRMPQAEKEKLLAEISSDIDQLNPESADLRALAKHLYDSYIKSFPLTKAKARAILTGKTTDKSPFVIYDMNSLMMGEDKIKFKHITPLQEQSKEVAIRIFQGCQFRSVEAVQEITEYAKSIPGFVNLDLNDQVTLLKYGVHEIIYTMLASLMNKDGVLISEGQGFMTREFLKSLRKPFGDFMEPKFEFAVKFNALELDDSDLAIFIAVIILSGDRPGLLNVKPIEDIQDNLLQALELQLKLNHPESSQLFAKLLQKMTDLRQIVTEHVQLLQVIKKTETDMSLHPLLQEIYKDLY
Assay: In vitro binding affinity for PPAR-gamma
pIC50: −log10 of the molar value.
Catalogue of pIC50 values

Field: example entries. Status: answers known.
CC(C)[C@@]1(C(=O)O)Cc2cc(OCCCOc3cc(C(F)(F)F)ccc3Cl)ccc2O1 :: < 4.82
O=C(O)C1Cc2cc(OCCCOc3ccc(OCC(F)(F)F)cc3Cl)ccc2O1 (racemic) :: < 4.82
CC(C)[C@@]1(C(=O)O)Cc2cc(OCCOc3ccc(OC(F)(F)F)cc3Cl)ccc2O1 :: < 4.30
CC(C)[C@@]1(C(=O)O)Cc2cc(OCCCOc3ccc(OC(F)(F)F)cc3Cl)ccc2O1 :: < 4.82

What value of measured pIC50 is listed for "CC[C@@]1(C(=O)O)Cc2cc(OCCCOc3ccc(OCC(F)(F)F)cc3)ccc2O1" ?
< 4.30

Can you handle "CC[C@@]1(C(=O)O)Cc2cc(OCCCOc3ccc(CC(F)(F)F)cc3Cl)ccc2O1" next?
< 4.82

Can you handle CCC1(C(=O)O)Cc2cc(OCCCOc3ccc(C(F)(F)F)cc3Cl)ccc2O1 (racemic) next?
< 4.82

Can you handle "CC[C@@]1(C(=O)O)Cc2cc(OCCCOc3ccc(OC(F)(F)F)cc3Cl)ccc2O1" next?
< 4.82

Can you handle "CC(C)(C)[C@@]1(C(=O)O)Cc2cc(OCCOc3ccc(OC(F)(F)F)cc3Cl)ccc2O1" next?
< 4.30

---

Target: Peroxisome proliferator-activated receptor gamma (Homo sapiens, UniProt P37231)
Test: Effective concentration against human PPAR-gamma in Gal4 transactivation assay; 28% response at 3 uM
Type: functional
property_measured: EC50

What value of measured EC50 is listed for "CC[C@@]1(C(=O)O)Cc2cc(OCCCOc3ccc(CC(F)(F)F)cc3Cl)ccc2O1" ?
> 3 µM

---

Target: Peroxisome proliferator-activated receptor alpha (Homo sapiens, UniProt Q07869)
Sequence (Q07869 whole entry): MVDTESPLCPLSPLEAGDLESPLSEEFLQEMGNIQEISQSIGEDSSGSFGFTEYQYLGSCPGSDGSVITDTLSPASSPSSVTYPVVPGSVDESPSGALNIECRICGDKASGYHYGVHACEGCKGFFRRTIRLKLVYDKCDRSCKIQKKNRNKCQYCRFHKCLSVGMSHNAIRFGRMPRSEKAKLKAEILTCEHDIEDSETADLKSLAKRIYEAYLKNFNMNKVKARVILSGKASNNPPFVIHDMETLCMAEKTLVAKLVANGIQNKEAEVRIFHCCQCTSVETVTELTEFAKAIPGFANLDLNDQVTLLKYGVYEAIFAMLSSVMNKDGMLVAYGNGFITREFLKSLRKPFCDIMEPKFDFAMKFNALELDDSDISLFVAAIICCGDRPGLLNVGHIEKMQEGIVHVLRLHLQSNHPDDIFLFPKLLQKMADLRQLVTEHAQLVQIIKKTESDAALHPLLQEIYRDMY
Test: Effective concentration against human PPAR-alpha in Gal4 transactivation assay
Catalogue of EC50 values
Number in nM, nothing else.

Field: example entries. Status: answers known.
CC[C@@]1(C(=O)O)Cc2cc(OCCCOc3ccc(CC(F)(F)F)cc3Cl)ccc2O1 :: 2
CC[C@@]1(C(=O)O)Cc2cc(OCCCOc3ccc(OC(F)(F)F)cc3Cl)ccc2O1 :: 2
CCC1(C(=O)O)Cc2cc(OCCCOc3ccc(SC(F)(F)F)cc3Cl)ccc2O1 (racemic) :: 3

What value of measured EC50 is listed for "CC(C)[C@@]1(C(=O)O)Cc2cc(OCCCOc3cc(C(F)(F)F)ccc3Cl)ccc2O1" ?
41

Can you handle CC1(C(=O)O)Cc2cc(OCCCOc3ccc(OCC(F)(F)F)cc3Cl)ccc2O1 (racemic) next?
138

---

Biological target: Peroxisome proliferator-activated receptor alpha (Canis lupus familiaris, UniProt Q95N78)
Sequence (Q95N78 whole entry, the tested form may be a part): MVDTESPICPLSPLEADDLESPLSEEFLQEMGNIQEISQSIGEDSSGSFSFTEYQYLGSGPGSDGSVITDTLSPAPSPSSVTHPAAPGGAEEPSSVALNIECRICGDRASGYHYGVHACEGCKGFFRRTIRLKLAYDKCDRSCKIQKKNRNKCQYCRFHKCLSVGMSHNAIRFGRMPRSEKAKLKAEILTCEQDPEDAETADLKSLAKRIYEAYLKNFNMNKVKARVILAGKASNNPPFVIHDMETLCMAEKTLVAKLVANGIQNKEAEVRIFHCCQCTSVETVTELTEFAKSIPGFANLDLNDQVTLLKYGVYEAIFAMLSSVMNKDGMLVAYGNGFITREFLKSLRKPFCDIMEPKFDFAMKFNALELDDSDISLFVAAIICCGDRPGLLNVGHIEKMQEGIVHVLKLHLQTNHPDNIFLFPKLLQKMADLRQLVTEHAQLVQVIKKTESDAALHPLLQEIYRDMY
Assay: Effective concentration against canine PPAR-alpha in Gal4 transactivation assay
property_measured: EC50

CC(C)[C@@]1(C(=O)O)Cc2cc(OCCCOc3ccc(OC(F)(F)F)cc3Cl)ccc2O1 :: < 1 nM
CCCc1cc(SC(F)(F)F)ccc1OCCCOc1ccc2c(c1)CC(CC)(C(=O)O)O2 (racemic) :: < 1 nM
CCC1(C(=O)O)Cc2cc(OCCCOc3ccc(SC(F)(F)F)cc3Cl)ccc2O1 (racemic) :: < 1 nM
CC[C@@]1(C(=O)O)Cc2cc(OCCCOc3ccc(CC(F)(F)F)cc3Cl)ccc2O1 :: < 1 nM

Then this compound:
What value of measured EC50 is listed for CCC1(C(=O)O)Cc2ccc(OCCCOc3ccc(OC(F)(F)F)cc3Cl)cc2O1 (stereo not given) ?
< 1 nM

---

Target: Peroxisome proliferator-activated receptor gamma (Homo sapiens, UniProt P37231)
Experiment: In vitro binding affinity for PPAR-gamma
property_measured: IC50

Field: example entries. Status: answers known.
O=C(O)C1(C(F)(F)F)Cc2cc(OCCCOc3ccc(CC(F)(F)F)cc3Cl)ccc2O1 (racemic) :: > 15 µM
CC1(C(=O)O)Cc2cc(OCCCOc3ccc(OCC(F)(F)F)cc3Cl)ccc2O1 (racemic) :: > 15 µM
CC(C)[C@]1(C(=O)O)Cc2cc(OCCCOc3ccc(OC(F)(F)F)cc3Cl)ccc2O1 :: > 50 µM
CC[C@]1(C(=O)O)Cc2cc(OCCCOc3ccc(OC(F)(F)F)cc3Cl)ccc2O1 :: > 15 µM
CC[C@@]1(C(=O)O)Cc2cc(OCCCOc3ccc(CCC(F)(F)F)cc3Cl)ccc2O1 :: > 15 µM

What value of measured IC50 is listed for CCC1(C(=O)O)Cc2cc(OCCCOc3ccc(CC(C)(C)C)cc3Cl)ccc2O1 (racemic) ?
5.6 µM

Can you handle CCC1(C(=O)O)Cc2cc(OCCCOc3ccc(C(C)(C)C)cc3Cl)ccc2O1 (racemic) next?
4.33 µM

Can you handle O=C(O)C1(Cc2ccccc2)Cc2cc(OCCCOc3ccc(OC(F)(F)F)cc3Cl)ccc2O1 (racemic) next?
> 15 µM

Can you handle CCC1(C(=O)O)Cc2ccc(OCCCOc3ccc(OC(F)(F)F)cc3Cl)cc2O1 (centres undefined) next?
3.22 µM
